B1: TPR t1 (parent)
chain: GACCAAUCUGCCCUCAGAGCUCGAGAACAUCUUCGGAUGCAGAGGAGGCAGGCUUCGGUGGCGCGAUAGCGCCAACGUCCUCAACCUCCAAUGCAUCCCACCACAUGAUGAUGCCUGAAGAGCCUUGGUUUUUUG

variants of: B1; assay: polymerase ribozyme fitness, log enrichment relative to wild type (log ratio); higher = more active; in vitro selection for triplet polymerase activity
Rule: polymerase ribozyme fitness (log ratio) under -3 gives N, otherwise Y.

Request: Answer whether polymerase ribozyme fitness (log ratio) of G19A C94G is greater than or equal to -3.
Result: N

Request: # bool: polymerase ribozyme fitness (log ratio) of C20G A43U >= -3
Result: N

Request: // inclusive: polymerase ribozyme fitness (log ratio) at least -3? input: U7C G19U U54C C72G
Result: N

Request: Is reported polymerase ribozyme fitness (log ratio) greater than or equal to -3 here: U33A C64U U87A
Result: N

Request: Is polymerase ribozyme fitness (log ratio) at least -3? Consider G69U C102U A121U
Result: N

Request: Given the entry U9A A75U U96G , answer whether its polymerase ribozyme fitness (log ratio) meets or surpasses -3.
Result: Y
